Target: G1 APOL1 (Homo sapiens, UniProt O14791, I384M/S342G)
Construct: expressed in transfected cells
Sequence (O14791 28-398 S342G/I384M): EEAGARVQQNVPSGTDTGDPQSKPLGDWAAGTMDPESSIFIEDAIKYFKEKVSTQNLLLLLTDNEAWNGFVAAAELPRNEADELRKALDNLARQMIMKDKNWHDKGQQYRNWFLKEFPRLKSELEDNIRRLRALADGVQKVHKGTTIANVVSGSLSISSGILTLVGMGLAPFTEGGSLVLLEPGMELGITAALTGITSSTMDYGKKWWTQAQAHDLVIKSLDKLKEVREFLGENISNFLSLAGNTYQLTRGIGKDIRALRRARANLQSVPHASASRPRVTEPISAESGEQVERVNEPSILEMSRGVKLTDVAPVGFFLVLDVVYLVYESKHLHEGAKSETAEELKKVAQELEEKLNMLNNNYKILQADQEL
Assay: Acute APOL1 Thallium Assay with Inducible Stable Clones of HEK 293 Cells
Format: cell-based
Settings: HEK 293 inducible stable clones, G1 APOL1; read-out: Thallium Assay (IC50)
From the text: Acute APOL1 Thallium Assay with Inducible Stable Clones of HEK 293 Cells Apolipoprotein L1 (APOL1) proteins form potassium-permeable cation pores in the plasma membrane. APOL1 risk variants (G1 and G2) induce greater potassium flux than G0 in HEK293 cells. […] The increase of fluorescence in the assay represents the influx of Tl+ into the cell specifically through the potassium channel (i.e. through APOL1 pores), providing a functional measurement of potassium channel/pore activity. […]
pIC50: −log10 of the molar value.
In this section we review reported pIC50 values for a set of compounds.

- Compound: "CC1(O)CN(C(=O)CCc2c(-c3ccc(F)cc3)[nH]c3ccc(F)cc23)C1 [Compound 86]"
  pIC50: "< 6.00"
- Compound: "O=C(CCc1c(-c2ccc(F)cc2)[nH]c2c(F)cc(F)cc12)Nc1ccc[nH]c1=O [Compound 175]"
  pIC50: "< 6.00"
- Compound: "CC(CO)(CO)NC(=O)OCCc1c(-c2ccc(F)cc2)[nH]c2c(F)cc(F)cc12 [Compound 434]"
  pIC50: "> 6.60"
- Compound: "O=C(CCc1c(-c2ccc(F)cc2)[nH]c2c(F)cc(F)cc12)NC1(CO)COC1 [Compound 126]"
  pIC50: "6.00 to 6.60"
- Compound: "CC(NC(=O)CCc1c(-c2ccc(F)cc2)[nH]c2ccc(F)cc12)C(N)=O (racemic) [Compound 13]"
  pIC50: "6.00 to 6.60"
- Compound: "NCCCCc1c(-c2ccc(F)cc2)[nH]c2c(F)cc(F)cc12 [Compound 511]"
  pIC50: "> 6.60"
- Compound: "O=C1CC(C(=O)NCCc2c(-c3ccc(F)cc3)[nH]c3c(F)cc(F)cc23)CO1 (centres unmarked) [Compound 383]"
  pIC50: "< 6.00"
- Compound: "Cc1ccc(CNC(=O)CCc2c(-c3ccc(F)cc3)[nH]c3c(F)cc(F)cc23)o1 [Compound 177]"
  pIC50: "< 6.00"
- Compound: "O=C1CC(C(=O)NCCc2c(-c3ccc(F)cc3)[nH]c3c(F)cc(F)cc23)C(=O)N1 (centres unmarked) [Compound 333]"
  pIC50: "> 6.60"
- Compound: "CC(C)[C@@H](CO)NC(=O)OCCc1c(-c2ccc(F)cc2)[nH]c2c(F)cc(F)cc12 [Compound 459]"
  pIC50: "6.00 to 6.60"
- Compound: "CO[C@H]1C[C@@H](NC(=O)OCCc2c(-c3ccc(F)cc3)[nH]c3c(F)cc(F)cc23)C1 [Compound 496]"
  pIC50: "< 6.00"
- Compound: "O=C(CCc1c(-c2ccc(F)cc2)[nH]c2ccc(F)cc12)NCC1(O)CC1 [Compound 82]"
  pIC50: "< 6.00"
- Compound: "CC(C)(C)OC(=O)N[C@@H](CCO)C(=O)NCCc1c(-c2ccc(F)cc2)[nH]c2c(F)cc(F)cc12 [Compound 307]"
  pIC50: "< 6.00"
- Compound: "NCCc1c(-c2ccc(F)cc2)[nH]c2c(F)cc(F)cc12 [Compound 432]"
  pIC50: "< 6.00"
- Compound: "COCCC(=O)NCCc1c(-c2ccc(F)cc2)[nH]c2c(F)cc(F)cc12 [Compound 412]"
  pIC50: "6.00 to 6.60"
- Compound: "O=C(NCCc1c(-c2ccc(F)cc2)[nH]c2c(F)cc(F)cc12)c1cnc(C(F)(F)F)s1 [Compound 367]"
  pIC50: "< 6.00"
- Compound: "O=C(CCc1c(-c2ccc(F)cc2)[nH]c2c(F)cc(F)cc12)NC1CCCC1=O (centres unmarked) [Compound 101]"
  pIC50: "> 6.60"
- Compound: "O=C1N[C@@H](C(=O)NCCc2c(-c3ccc(F)cc3)[nH]c3c(F)cc(F)cc23)CO1 [Compound 306]"
  pIC50: "< 6.00"
- Compound: "Cn1ccnc1S(=O)(=O)NCCc1c(-c2ccc(F)cc2)[nH]c2c(F)cc(F)cc12 [Compound 424]"
  pIC50: "< 6.00"
- Compound: "C[C@H](CO)NC(=O)OCCc1c(-c2ccc(F)cc2)[nH]c2c(F)cc(F)cc12 [Compound 445]"
  pIC50: "> 6.60"
- Compound: "OCCc1c(-c2ccc(F)cc2)[nH]c2c(F)cc(F)cc12 [Compound 433]"
  pIC50: "> 6.60"
- Compound: "O=C(CCc1c(-c2ccc(F)cc2)[nH]c2ccc(F)cc12)N[C@H]1CC[C@@H]1O [Compound 29]"
  pIC50: "6.00 to 6.60"
- Compound: "O=C(CCc1c(-c2ccc(F)cc2)[nH]c2c(F)cc(F)cc12)NC1(CO)CCOC1 (centres unmarked) [Compound 116]"
  pIC50: "< 6.00"
- Compound: "CNCCc1c(-c2ccc(F)cc2)[nH]c2c(F)cc(F)cc12 [Compound 428]"
  pIC50: "< 6.00"
- Compound: "O=C(N[C@@H]1CCNC1=O)OCCc1c(-c2ccc(F)cc2)[nH]c2c(F)cc(F)cc12 [Compound 448]"
  pIC50: "> 6.60"
- Compound: "O=C(CCc1c(-c2ccc(F)cc2)[nH]c2ccc(F)cc12)NC1(c2ccccc2)CC1 [Compound 65]"
  pIC50: "< 6.00"
- Compound: "O=C(NCCc1c(-c2ccc(F)cc2)[nH]c2c(F)cc(F)cc12)c1ccnc(C(F)(F)F)c1 [Compound 369]"
  pIC50: "< 6.00"
- Compound: "COC1CC1NC(=O)OCCc1c(-c2ccc(F)cc2)[nH]c2c(F)cc(F)cc12 (centres unmarked) [Compound 479]"
  pIC50: "< 6.00"
- Compound: "Cc1cc(F)c2[nH]c(-c3ccc(F)cc3)c(CCC(=O)NC(CO)(CO)CO)c2c1 [Compound 217]"
  pIC50: "< 6.00"
- Compound: "CC(C)(O)CCNC(=O)OCCc1c(-c2ccc(F)cc2)[nH]c2c(F)cc(F)cc12 [Compound 458]"
  pIC50: "6.00 to 6.60"
- Compound: "Cn1ccnc1C(=O)NCCc1c(-c2ccc(F)cc2)[nH]c2c(F)cc(F)cc12 [Compound 388]"
  pIC50: "6.00 to 6.60"
- Compound: "Cc1cnc(CNC(=O)OCCc2c(-c3ccc(F)cc3)[nH]c3c(F)cc(F)cc23)o1 [Compound 487]"
  pIC50: "< 6.00"

---

Examples of compounds with documented IC50 follow.
Biological target: APOL1 G1 Protein (Homo sapiens, UniProt O14791, I384M/S342G)
Sequence (O14791 28-398 S342G/I384M): as above
Experiment: Trypanosoma brucei brucei Lysis Assay Using APOL1 Recombinant Protein (AlamarBlue viability)
Details: read-out: Trypanosomal Assay (IC50)
Metric name: IC50

- Compound: "CC1(NC(=O)CCc2c(-c3ccc(F)cc3)[nH]c3ccc(F)cc23)COC1"
  Value measured: "250 to 1000 nM"
- Compound: "O=C(CCc1c(-c2ccc(F)cc2)[nH]c2ccc(F)cc12)NC1CONC1=O (stereo not drawn)"
  Value measured: "> 1000 nM"
- Compound: "OCCCc1c(-c2ccc(F)cc2)[nH]c2c(F)cc(F)cc12"
  Value measured: "< 250 nM"
- Compound: "O=C(CCc1c(-c2ccc(F)cc2)[nH]c2ccc(F)cc12)NC1(c2ccccc2)CC1"
  Value measured: "> 1000 nM"
- Compound: "CC(C)C(CO)NC(=O)CCc1c(-c2ccc(F)cc2)[nH]c2ccc(F)cc12 (stereo not drawn)"
  Value measured: "> 1000 nM"
- Compound: "CC1CC(NC(=O)CCc2c(-c3ccc(F)cc3)[nH]c3c(F)cc(F)cc23)C(=O)O1 (mixture of isomers)"
  Value measured: "> 1000 nM"
- Compound: "O=C(CCc1c(-c2ccc(F)cc2)[nH]c2ccc(F)cc12)NCC(F)(F)F"
  Value measured: "> 1000 nM"
- Compound: "O=C(CCc1c(-c2ccc(F)cc2)[nH]c2c(F)cc(F)cc12)N1CC[C@@H]1CO"
  Value measured: "250 to 1000 nM"
- Compound: "O=C(CCc1c(-c2ccc(F)cc2)[nH]c2c(F)cc(F)cc12)NCC1(CO)COC1"
  Value measured: "> 1000 nM"
- Compound: "C#CC(CO)CNC(=O)CCc1c(-c2ccc(F)cc2)[nH]c2c(F)cc(F)cc12 (stereo not drawn)"
  Value measured: "250 to 1000 nM"
- Compound: "O=C(CCc1c(-c2ccc(F)cc2)[nH]c2c(F)cc(F)cc12)NCCC(=O)N1CC(O)C1"
  Value measured: "> 1000 nM"
- Compound: "CC1(NC(=O)CCc2c(-c3ccc(F)cc3)[nH]c3c(F)cc(F)cc23)CCOC1 (racemic)"
  Value measured: "> 1000 nM"
- Compound: "Cc1nc(NC(=O)CCc2c(-c3ccc(F)cc3)[nH]c3c(F)cc(F)cc23)no1"
  Value measured: "> 1000 nM"
- Compound: "O=C(CCc1c(-c2ccc(F)cc2)[nH]c2ccc(F)cc12)N[C@@H]1CCC[C@H]1O"
  Value measured: "> 1000 nM"
- Compound: "O=C(CCc1c(-c2ccc(F)cc2)[nH]c2ccc(F)cc12)NC(CO)C1CC1 (stereo not drawn)"
  Value measured: "250 to 1000 nM"
